# key: entry, value: cytotoxicity at 10 µM
assay: Toxicity liver stage against HepG2, at 10uM; assay type: cell-based; design: test concentration 10 uM, cell line HepG2-A16-CD81EGFP; settings: human, HepG2-A16-CD81EGFP cells; read-out: INHIBITION
reportedMetric: cytotoxicity at 10 µM (%)

# compound, readoutUnits, recordedResult
rows = [
    ("CCN(CC)C[C@H]1CN2CC[C@H]1C[C@@H]2CNC(=O)Nc1ccsc1", "%", -17.8),
    ("CCNS(=O)(=O)C1CCN(C(=O)c2c(F)cc(F)cc2F)C1 (stereo not drawn)", "%", 7.43),
    ("CCc1cc(=O)n(CC(=O)N2CCCC2)c(-c2ccccc2)n1", "%", 7.25),
]

###

# key: entry, value: cytotoxicity at 10 µM
test: Toxicity liver stage against HepG2, at 10uM; assay type: cell-based; design: test concentration 10 uM, cell line HepG2-A16-CD81EGFP; conditions: human, HepG2-A16-CD81EGFP cells; read-out: INHIBITION

# molecule, readoutUnits, cytotoxicity at 10 µM
data = [
    ("CCc1nnc2n1CCN(C(=O)c1ccnc(N(C)C)c1)C2", "%", -21),
    ("CN1CCC(c2cc(CCO)ncn2)C1 (stereo not given)", "%", 4.87),
    ("O=C(NCCNc1ncccn1)C1CC(=O)N(CC(F)(F)F)C1 (stereo not given)", "%", -9.02),
    ("CCn1nc(C)c(C(C)Nc2cc(C3CCNCC3)nc(C)n2)c1C (stereo not given)", "%", 2.38),
    ("COCC(=O)N1CCc2cccc(S(=O)(=O)N3CCN(C)CC3)c2C1", "%", 5.07),
    ("Cc1ccn(-c2cncc(C(N)=O)c2)n1", "%", 0.0642),
    ("NS(=O)(=O)CCNC(=O)c1ccc(-c2ccc(F)cc2)cc1F", "%", -3.62),
    ("COc1cc(N2CCO[C@H]3[C@@H](Oc4cccnc4)CC[C@@H]32)ncn1", "%", -3.33),
    ("Cc1cc(C)nc(Nc2cccc(C3CCCN(CC4CC4)C3)n2)n1 (stereo not given)", "%", -11.3),
    ("O=C(c1cnccn1)N1CCOC2(CCN(Cc3ccsc3)CC2)C1", "%", -4.45),
    ("CCN(Cc1ccoc1)C(=O)C1CN(C(=O)OC(C)(C)C)C1", "%", -0.743),
    ("CCN1CCC2(CC1)CC(NCc1cccc(C)n1)c1ccccc1O2 (stereo not given)", "%", -1.46),
    ("Cc1nc(CN2CCCN(c3nccs3)CC2)no1", "%", -3.62),
    ("CCc1nc(N2CCCC(CO)(CCOC)C2)ncc1C (stereo not given)", "%", 4.93),
    ("CC(C)(C)C1SCC(=O)Nc2c1c(O)nn2C1CCCC1 (stereo not given)", "%", 3.36),
    ("Cc1ncc2c(n1)CN(CCCc1nc3ccccc3o1)CC2", "%", 6.81),
    ("COc1ccc(CC(=O)NC(C)c2nc3cccnc3n2C(C)C)cc1 (stereo not given)", "%", -11.7),
    ("Cc1nc(CN2CCO[C@@H]3CN(Cc4ccccn4)CC[C@@H]3C2)cs1", "%", 7.02),
    ("COCCN1C[C@H]2CCN(C(=O)Nc3ccccc3C)CC[C@H]2S1(=O)=O", "%", 0.64),
    ("CCn1nc(C)c(CCNC(=O)C2CCCN(C(=O)N(C)C)C2)c1C (stereo not given)", "%", 0.874),
    ("CN(CCCOc1ccc(F)cc1)Cc1nc2c(cnn2C)c(=O)[nH]1", "%", -4.62),
    ("CC(=O)Nc1ccc(C(=O)N2CCSCC2c2ccc(C)o2)cc1 (stereo not given)", "%", 11.4),
    ("CCn1c(C2CCN(C(=O)c3cc(Cl)no3)CC2)nn(C)c1=O", "%", -10.5),
    ("CCNC(c1cccnc1)c1ccc(F)c(F)c1 (stereo not given)", "%", 1.03),
    ("CCn1cc(CNC2CCN(c3cccc(Cl)c3)C2)cn1 (stereo not given)", "%", -10.1),
    ("CC(C)c1nnc2n1CCN(C(=O)c1ccc(CN(C)C)cc1)C2", "%", 5.2),
    ("Cc1cnn(C2CN(Cc3nc(C(C)(C)C)no3)C2)c1", "%", -7.28),
    ("Cc1nc(CNC(=O)NCC(O)c2ccccc2)cs1 (stereo not given)", "%", 0.682),
    ("CN(c1ccccc1)c1ccc(CC2CCCN(CCO)C2)nn1 (stereo not given)", "%", -9.3),
    ("Cn1c(CCNC(=O)C2CCCN(C3CCOCC3)C2)n[nH]c1=O (stereo not given)", "%", 2.12),
    ("CC(C)N(Cc1ccc(C#N)cc1)C(=O)NCCNc1ncccn1", "%", 3.78),
    ("CCN1CCC(N2CCC(C(=O)N(C)C)CC2)CC1", "%", 0.486),
    ("O=C(O)c1cc(Br)cnc1OCC1CC1", "%", 6.43),
    ("Cn1cc(CNC2CCS(=O)(=O)C2)c(-c2cc3ccccc3o2)n1 (stereo not given)", "%", -39.1),
    ("Cc1cnc(C2CCCN(C(=O)c3c[nH]c(=O)[nH]c3=O)C2)s1 (stereo not given)", "%", -1.58),
    ("Cc1noc(C)c1CNC(=O)N1CCC(OCC2CC2)CC1", "%", -11),
    ("CNC(=O)C(C)S(=O)(=O)Cc1csc(-c2cccs2)n1 (stereo not given)", "%", -11.9),
    ("Cc1ccc(OCC(=O)NS(=O)(=O)c2c(C)noc2C)cc1C", "%", -1.96),
    ("CCCOC1CCCN(C(=O)c2csc(S(N)(=O)=O)c2)C1 (stereo not given)", "%", -5.45),
    ("COc1cc(C)cc(-c2nc3c([nH]2)CCNC3)c1OC", "%", 4.46),
]

###

# key: entry, value: cytotoxicity at 10 µM
experiment: Toxicity liver stage against HepG2, at 10uM; type: cell-based; parameters: test concentration 10 uM, cell line HepG2-A16-CD81EGFP; conditions: human, HepG2-A16-CD81EGFP cells; read-out: INHIBITION

# compound, cytotoxicity at 10 µM / %
data = [
    ("COC1CCN(c2ccc(F)cc2CN(C)C(C)C(N)=O)CC1 (configuration not stated)", 9.13),
    ("CN(Cc1cccnc1)CC1(O)CCCN(CC(C)(C)C)C1=O (configuration not stated)", 3.09),
    ("CCN1CCN(C(=O)c2c[nH]c(C(C)C)n2)c2ccccc21", 11.2),
    ("Cc1nn(C)c(C)c1CN(Cc1cccn1-c1ncccn1)C(C)C", -0.316),
    ("CC(C(=O)NC1CCCC1)S(=O)(=O)Cc1noc(C(C)(C)C)n1 (configuration not stated)", -9.41),
    ("CCc1onc(C)c1C(=O)N1CCC(c2cc3ncccc3cn2)CC1", 1.68),
    ("CCN(Cc1ccncc1)CC1(C)Cc2c(N)nc(N)nc2O1 (configuration not stated)", 2.15),
    ("CN1CCN(C(=O)c2cc3c(s2)CCN3C(=O)C2CC2)CC1", 8.52),
    ("COC(=O)CNC(=O)c1sc(-c2ccc(Cl)s2)nc1C", -5.63),
    ("O=C(NCc1ccco1)c1cccc(C(=O)NCc2ccco2)n1", 5.7),
    ("Cc1noc(C)c1-c1nc(NCCN(C)C)ncc1-c1cnccn1", -9.03),
    ("Cn1c(Cn2ncc(N3CCCC3)cc2=O)nc2ccccc21", 5.65),
    ("Cn1cc(CNCC(c2ccc(Cl)cc2)n2cccn2)cn1 (configuration not stated)", 1.21),
    ("Cc1noc([C@H]2C[C@H]3OCC[C@H]3N(C3CCC3)C2)n1", -129),
    ("COc1ccc(CN2CCN(CC3CC3)[C@@H]3CS(=O)(=O)C[C@@H]32)cc1O", -0.931),
    ("Cc1nc([C@@H]2C[C@H]3CN(Cc4scnc4C)C[C@H]3O2)no1", -127),
    ("COc1ccccc1C(=O)N(Cc1nc(C)cs1)CC1CCCO1 (configuration not stated)", 0.136),
    ("O=C(CCc1ccco1)N1CCCN(Cc2cscn2)CC1", 3.28),
    ("COc1cccc(OCC2CCCN(C(=O)CCn3ccnc3)C2)c1 (configuration not stated)", -19.8),
    ("CN(C)c1ncnc2c1CCN(S(=O)(=O)c1ccccc1C(F)(F)F)C2", 21.3),
    ("O=C(N[C@H]1CN(Cc2ccsc2)[C@@H]2CCCO[C@H]12)C1CC1", 4.62),
    ("Cc1cnc(N2CC3(CCN(C(=O)c4ccoc4)C3)C2)nc1", -10.1),
]

Data origin, for the record: ChEMBL document CHEMBL4513216
